# test.details: Pharmacokinetics testing in vivo, oral, rats
# condition.context: rat, Wistar rats, oral 30 mg/kg, serum
Please respond with reported Cmax for every item in the list.
Answers are plain numbers, in ng/mL.

Completed entries (count: 3):
smiles_data=CC(C)(O)C1CCN(Cc2cc3nc(-c4cccc5[nH]ccc45)cc(N4CCOCC4)n3n2)CC1 units_symbol=ng/mL observed_result=600
smiles_data=CC(C)(C)N1CCN(Cc2cc3nc(-c4cccc5[nH]ccc45)cc(N4CCOCC4)n3n2)CC1 units_symbol=ng/mL observed_result=200
smiles_data=CC(C)(C)N1CCN(Cc2cc3nc(-c4c(F)ccc5[nH]ccc45)cc(N4CCOCC4)n3n2)CC1 units_symbol=ng/mL observed_result=300

Read the next record carefully.
Could you share which Cmax value was measured for CC(C)(C)N1CCN(Cc2cc3nc(-n4c(C(F)F)nc5ccccc54)cc(N4CCOCC4)n3n2)CC1 ? 900

====

# target.or.system: PI3Kδ (Homo sapiens)
# Construct: purchased Merck Millipore
# Sequence (O00329 whole entry, one chain of several): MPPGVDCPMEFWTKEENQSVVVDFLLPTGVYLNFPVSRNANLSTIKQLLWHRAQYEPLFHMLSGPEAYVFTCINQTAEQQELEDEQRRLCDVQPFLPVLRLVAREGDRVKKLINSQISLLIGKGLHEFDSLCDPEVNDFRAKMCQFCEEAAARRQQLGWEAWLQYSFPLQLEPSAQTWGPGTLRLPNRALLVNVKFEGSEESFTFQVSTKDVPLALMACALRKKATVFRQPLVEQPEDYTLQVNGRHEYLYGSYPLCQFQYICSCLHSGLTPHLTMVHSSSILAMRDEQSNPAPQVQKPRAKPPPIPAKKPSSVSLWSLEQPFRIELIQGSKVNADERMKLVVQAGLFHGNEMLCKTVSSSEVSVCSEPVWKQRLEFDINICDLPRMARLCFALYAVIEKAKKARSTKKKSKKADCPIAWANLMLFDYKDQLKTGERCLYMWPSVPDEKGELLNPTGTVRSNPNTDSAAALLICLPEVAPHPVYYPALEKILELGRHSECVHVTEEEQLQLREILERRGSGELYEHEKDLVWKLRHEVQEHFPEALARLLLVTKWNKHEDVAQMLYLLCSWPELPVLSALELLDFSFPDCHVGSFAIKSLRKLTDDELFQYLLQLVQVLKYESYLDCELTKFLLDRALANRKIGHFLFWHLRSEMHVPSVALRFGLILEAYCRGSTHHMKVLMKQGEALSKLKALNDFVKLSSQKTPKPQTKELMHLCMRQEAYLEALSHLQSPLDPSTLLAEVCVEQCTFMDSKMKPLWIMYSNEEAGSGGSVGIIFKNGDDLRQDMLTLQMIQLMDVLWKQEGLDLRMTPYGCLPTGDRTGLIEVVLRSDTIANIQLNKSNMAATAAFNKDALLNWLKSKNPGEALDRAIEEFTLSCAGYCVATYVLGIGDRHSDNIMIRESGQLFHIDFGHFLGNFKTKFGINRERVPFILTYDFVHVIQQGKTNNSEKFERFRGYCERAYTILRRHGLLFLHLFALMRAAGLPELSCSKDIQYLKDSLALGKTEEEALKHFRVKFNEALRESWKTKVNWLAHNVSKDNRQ
# test.details: PI3K kinases inhibition in vitro (ADP-Glo), PI3Kδ
# Assay type: biochemical
# condition.context: averaged; recombinant kinase, 25° C., 1 h, PIP2 30 μM; read-out: PI3Kδ IC50
pIC50: −log10 of the molar value.
metric: pIC50

smiles_data=CC(C)(C)N1CCN(Cc2cc3nc(-n4c(C5CC5)nc5ccccc54)cc(N4CCOCC4)n3n2)CC1 observed_result="6.00 to 7.00"
smiles_data=CC(C)(C)N1CCN(Cc2cc3nc(-n4c(C(F)F)nc5cnccc54)cc(N4CCOCC4)n3n2)CC1 observed_result="6.00 to 7.00"
smiles_data=Fc1ccc2[nH]ccc2c1-c1cc(N2CCOCC2)n2nc(CN3CCN(C4COC4)CC3)cc2n1 observed_result="> 7.00"
smiles_data=CC(C)(C(N)=O)N1CCN(Cc2cc3nc(-c4c(F)ccc5[nH]ccc45)cc(N4CCOCC4)n3n2)CC1 observed_result="> 7.00"
smiles_data=CC(C)(C)N1CCN(Cc2nn3c(N4CCOCC4)cc(-n4c(C(F)F)nc5ccccc54)nc3c2Cl)CC1 observed_result="> 7.00"
smiles_data=CC(C)(O)C1CCN(Cc2cc3nc(-c4c(F)ccc5[nH]ccc45)cc(N4CCOCC4)n3n2)CC1 observed_result="> 7.00"
smiles_data=Cc1c(CN2CCC(C(C)(C)O)CC2)nn2c(N3CCOCC3)cc(-n3c(C(F)F)nc4ccccc43)nc12 observed_result="> 7.00"
smiles_data=FC(F)c1nc2ccccc2n1-c1cc(N2CCOCC2)n2nc(CN3CC(N4CCC(F)(F)CC4)C3)cc2n1 observed_result="> 7.00"

// for each compound in input: emit pIC50
1. CC(C)(O)C1CCN(Cc2cc3nc(-n4c(C(F)F)nc5ccccc54)cc(N4CCOCC4)n3n2)CC1
2. CC(C)(O)C1CCN(Cc2cc3nc(-c4cncc5[nH]ccc45)cc(N4CCOCC4)n3n2)CC1

["> 7.00", "> 7.00"]

// for each compound in input: emit pIC50
1. C[C@@H]1CN(C2CN(Cc3cc4nc(-n5c(C(F)F)nc6ccccc65)cc(N5CCOCC5)n4n3)C2)C[C@H](C)O1
2. CC(C)c1nc2ccccc2n1-c1cc(N2CCOCC2)n2nc(CN3CCC(C(C)(C)O)CC3)cc2n1
3. CC(C)(C)N1CCN(Cc2cc3nc(-n4c(C(F)F)nc5ccccc54)cc(N4CCOCC4)n3n2)CC1
4. COC1CN(C2CN(Cc3cc4nc(-n5c(C(F)F)nc6ccccc65)cc(N5CCOCC5)n4n3)C2)C1
5. CC(C)(O)C1CCN(Cc2cc3nc(-c4cccc5[nH]ncc45)cc(N4CCOCC4)n3n2)CC1
6. CN1CCN(C2CCN(Cc3cc4nc(-c5c(F)ccc6[nH]ccc56)cc(N5CCOCC5)n4n3)CC2)CC1

> 7.00
6.00 to 7.00
> 7.00
> 7.00
6.00 to 7.00
> 7.00

====

# target.or.system: PI3Kγ (Homo sapiens, UniProt P48736)
# Construct: purchased Merck Millipore
# Sequence (P48736 whole entry): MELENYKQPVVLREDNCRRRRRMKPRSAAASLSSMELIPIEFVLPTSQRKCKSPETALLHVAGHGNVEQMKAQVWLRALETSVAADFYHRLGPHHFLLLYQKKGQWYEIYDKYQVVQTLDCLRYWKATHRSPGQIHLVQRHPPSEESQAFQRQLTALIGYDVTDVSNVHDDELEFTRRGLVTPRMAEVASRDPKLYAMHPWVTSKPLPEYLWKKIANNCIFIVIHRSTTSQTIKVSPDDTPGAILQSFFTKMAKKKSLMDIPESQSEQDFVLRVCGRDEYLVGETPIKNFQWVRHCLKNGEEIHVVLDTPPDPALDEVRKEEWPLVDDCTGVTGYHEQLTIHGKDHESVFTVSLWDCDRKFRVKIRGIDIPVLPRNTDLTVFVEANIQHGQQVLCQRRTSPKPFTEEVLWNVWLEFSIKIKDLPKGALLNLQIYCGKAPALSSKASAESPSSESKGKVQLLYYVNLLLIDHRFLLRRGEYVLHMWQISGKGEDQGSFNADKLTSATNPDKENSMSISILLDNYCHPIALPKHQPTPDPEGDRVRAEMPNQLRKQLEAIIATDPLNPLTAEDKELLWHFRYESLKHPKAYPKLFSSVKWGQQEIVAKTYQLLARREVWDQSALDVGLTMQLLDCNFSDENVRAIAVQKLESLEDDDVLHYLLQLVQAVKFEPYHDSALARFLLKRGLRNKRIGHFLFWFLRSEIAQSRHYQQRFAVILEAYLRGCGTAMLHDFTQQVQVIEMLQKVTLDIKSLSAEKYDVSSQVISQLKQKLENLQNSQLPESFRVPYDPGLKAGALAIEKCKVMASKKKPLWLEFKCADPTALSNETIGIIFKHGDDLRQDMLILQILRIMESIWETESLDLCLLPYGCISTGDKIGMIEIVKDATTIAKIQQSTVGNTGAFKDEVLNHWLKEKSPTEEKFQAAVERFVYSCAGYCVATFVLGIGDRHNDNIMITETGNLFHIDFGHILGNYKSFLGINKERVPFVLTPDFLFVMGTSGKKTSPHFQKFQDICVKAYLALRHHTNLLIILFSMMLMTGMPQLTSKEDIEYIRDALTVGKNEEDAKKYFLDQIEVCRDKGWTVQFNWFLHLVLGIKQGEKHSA
# test.details: PI3K kinases inhibition in vitro (ADP-Glo), PI3Kγ
# Type: biochemical
Please respond with reported IC50 for every item in the list.

Completed entries (count: 5):
compound="O=S1(=O)CCN(C2CN(Cc3cc4nc(-c5cccc6[nH]ccc56)cc(N5CCOCC5)n4n3)C2)CC1 [Example 31]" metric=IC50 observed_result="> 1000 nM"
compound="CC(C)(C)N1CCN(Cc2cc3nc(-c4cccc5[nH]ccc45)cc(N4CCOCC4)n3n2)CC1 [Example 8]" metric=IC50 observed_result="> 1000 nM"
compound="CC(C)(O)C1CCN(Cc2cc3nc(-c4cccc5[nH]ccc45)cc(N4CCOCC4)n3n2)CC1 [Example 4]" metric=IC50 observed_result="> 1000 nM"
compound="CN(C)C1CCN(Cc2cc3nc(-c4cccc5[nH]ccc45)cc(N4CCOCC4)n3n2)CC1 [Example 5]" metric=IC50 observed_result="> 1000 nM"
compound="CC(C)(C(N)=O)N1CCN(Cc2cc3nc(-c4cccc5[nH]ccc45)cc(N4CCOCC4)n3n2)CC1 [Example 9]" metric=IC50 observed_result="> 1000 nM"

// for each compound in input: emit IC50
1. c1cc(-c2cc(N3CCOCC3)n3nc(CN4CC(N5CCOCC5)C4)cc3n2)c2cc[nH]c2c1 [Example 25]
2. CCN1CCN(Cc2cc3nc(-c4cccc5[nH]ccc45)cc(N4CCOCC4)n3n2)CC1 [Example 22]

["> 1000 nM", "> 1000 nM"]

// for each compound in input: emit IC50
1. CC(C)(C)N1CCN(Cc2cc3nc(-c4cncc5[nH]ccc45)cc(N4CCOCC4)n3n2)CC1 [Example 30]
2. CC(C)(C)C1CCN(Cc2cc3nc(-c4cccc5[nH]ccc45)cc(N4CCOCC4)n3n2)CC1 [Example 28]

> 1000 nM
> 1000 nM

====

# target.or.system: PI3Kβ (Homo sapiens, UniProt P42338)
# Construct: purchased Merck Millipore
# Sequence (P42338 whole entry): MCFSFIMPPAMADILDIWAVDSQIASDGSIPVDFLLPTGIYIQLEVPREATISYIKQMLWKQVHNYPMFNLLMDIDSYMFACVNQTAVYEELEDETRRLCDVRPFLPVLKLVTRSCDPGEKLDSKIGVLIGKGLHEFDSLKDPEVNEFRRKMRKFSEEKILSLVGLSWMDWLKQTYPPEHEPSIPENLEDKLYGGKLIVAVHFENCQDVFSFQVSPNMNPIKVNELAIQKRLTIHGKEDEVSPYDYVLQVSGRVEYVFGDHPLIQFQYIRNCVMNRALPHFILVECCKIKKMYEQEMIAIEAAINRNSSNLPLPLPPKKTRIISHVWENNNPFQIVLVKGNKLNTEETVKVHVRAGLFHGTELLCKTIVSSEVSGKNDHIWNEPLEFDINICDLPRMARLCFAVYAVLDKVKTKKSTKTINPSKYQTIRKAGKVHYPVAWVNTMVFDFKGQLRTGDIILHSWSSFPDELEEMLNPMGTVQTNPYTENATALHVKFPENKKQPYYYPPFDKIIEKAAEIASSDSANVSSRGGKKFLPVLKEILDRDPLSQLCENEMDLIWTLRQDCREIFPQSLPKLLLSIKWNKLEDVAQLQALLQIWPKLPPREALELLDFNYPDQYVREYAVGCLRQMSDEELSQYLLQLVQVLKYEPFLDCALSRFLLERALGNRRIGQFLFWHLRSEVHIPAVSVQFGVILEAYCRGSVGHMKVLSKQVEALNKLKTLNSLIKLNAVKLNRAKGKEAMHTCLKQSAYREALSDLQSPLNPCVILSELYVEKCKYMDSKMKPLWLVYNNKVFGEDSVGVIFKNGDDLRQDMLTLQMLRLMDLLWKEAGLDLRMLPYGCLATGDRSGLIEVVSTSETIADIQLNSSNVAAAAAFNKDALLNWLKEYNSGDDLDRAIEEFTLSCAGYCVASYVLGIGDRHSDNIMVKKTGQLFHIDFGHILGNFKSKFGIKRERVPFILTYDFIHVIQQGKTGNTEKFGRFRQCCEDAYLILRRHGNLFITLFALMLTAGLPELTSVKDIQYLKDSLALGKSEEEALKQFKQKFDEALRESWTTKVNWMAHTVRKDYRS
# Sequence (P27986 whole entry, further chain): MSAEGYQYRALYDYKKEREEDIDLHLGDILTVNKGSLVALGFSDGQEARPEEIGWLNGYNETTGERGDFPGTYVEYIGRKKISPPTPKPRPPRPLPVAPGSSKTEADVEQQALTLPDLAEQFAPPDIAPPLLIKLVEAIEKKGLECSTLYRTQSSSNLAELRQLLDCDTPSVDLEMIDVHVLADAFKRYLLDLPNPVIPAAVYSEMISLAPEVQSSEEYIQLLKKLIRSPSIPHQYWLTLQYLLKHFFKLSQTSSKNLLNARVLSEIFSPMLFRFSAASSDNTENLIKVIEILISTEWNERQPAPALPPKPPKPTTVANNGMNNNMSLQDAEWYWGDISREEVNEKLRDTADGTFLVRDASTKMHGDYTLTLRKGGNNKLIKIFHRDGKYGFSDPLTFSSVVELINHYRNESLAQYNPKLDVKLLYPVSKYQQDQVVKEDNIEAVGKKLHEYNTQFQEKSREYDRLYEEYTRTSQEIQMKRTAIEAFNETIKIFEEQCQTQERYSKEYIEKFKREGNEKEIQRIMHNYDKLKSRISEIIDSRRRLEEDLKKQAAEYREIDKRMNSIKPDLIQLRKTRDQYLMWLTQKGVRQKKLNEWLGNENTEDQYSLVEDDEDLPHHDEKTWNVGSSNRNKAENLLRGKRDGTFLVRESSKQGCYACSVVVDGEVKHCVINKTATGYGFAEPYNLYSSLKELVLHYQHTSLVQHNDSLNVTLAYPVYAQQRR
# test.details: PI3K kinases inhibition in vitro (ADP-Glo), PI3Kβ
# Type: biochemical
# condition.context: averaged; recombinant kinase, 30° C., 1 h, PIP2 50 μM; read-out: PI3Kβ IC50
pIC50: −log10 of the molar value.
metric: pIC50

Completed entries (count: 3):
smiles_data=CC(C)(C)N1CCN(Cc2cc3nc(-n4c(C(F)F)nc5ccccc54)cc(N4CCOCC4)n3n2)CC1 target_or_system="PI3Kβ (Homo sapiens, UniProt P42338)" metric=pIC50 observed_result="< 6.00"
smiles_data=CC(C)(C)N1CCN(C(=O)c2cc3nc(-c4cccc5[nH]ccc45)cc(N4CCOCC4)n3n2)CC1 target_or_system="PI3Kβ (Homo sapiens, UniProt P42338)" metric=pIC50 observed_result="< 6.00"
smiles_data=CC(C)(O)C1CCN(Cc2cc3nc(-c4cncc5[nH]ccc45)cc(N4CCOCC4)n3n2)CC1 target_or_system="PI3Kβ (Homo sapiens, UniProt P42338)" metric=pIC50 observed_result="< 6.00"

// for each compound in input: emit pIC50
1. O=C(C1CC1)N1CCN(Cc2cc3nc(-c4cccc5[nH]ccc45)cc(N4CCOCC4)n3n2)CC1
2. Cc1c(CN2CCN(C(C)(C)C)CC2)nn2c(N3CCOCC3)cc(-n3c(C(F)F)nc4ccccc43)nc12
3. CC(C)(C)N1CCN(Cc2cc3nc(-c4ccc(N)nc4)cc(N4CCOCC4)n3n2)CC1
4. CC(C)(C)N1CCN(Cc2cc3nc(-c4ccnc5[nH]ccc45)cc(N4CCOCC4)n3n2)CC1
5. CC(C)(O)C1CCN(Cc2cc3nc(-c4ccnc5[nH]ccc45)cc(N4CCOCC4)n3n2)CC1
6. FC(F)c1nc2ccccc2n1-c1cc(N2CCOCC2)n2nc(CN3CC(N4CCOCC4)C3)cc2n1
7. CC(C)(C)N1CCN(Cc2nn3c(N4CCOCC4)cc(-n4c(C(F)F)nc5ccccc54)nc3c2Cl)CC1

< 6.00
< 6.00
< 6.00
< 6.00
< 6.00
< 6.00
< 6.00

// for each compound in input: emit pIC50
1. CC(C)(C(N)=O)N1CCN(Cc2cc3nc(-c4c(F)ccc5[nH]ccc45)cc(N4CCOCC4)n3n2)CC1
2. FC(F)c1nc2ccccc2n1-c1cc(N2CCOCC2)n2nc(CN3CC(N4CCC(F)(F)CC4)C3)cc2n1
3. CC(C)(O)C1CCN(Cc2cc3nc(-c4c(F)ccc5[nH]ccc45)cc(N4CCOCC4)n3n2)CC1
4. CC(C)(C)N1CCN(Cc2cc3nc(-n4c(C(F)F)nc5cnccc54)cc(N4CCOCC4)n3n2)CC1
5. CN(C)C1CCN(Cc2cc3nc(-c4c(F)ccc5[nH]ccc45)cc(N4CCOCC4)n3n2)CC1
6. CC(C)(C)N1CCN(Cc2cc3nc(-c4cnc(N)nc4)cc(N4CCOCC4)n3n2)CC1

1: < 6.00; 2: < 6.00; 3: < 6.00; 4: < 6.00; 5: < 6.00; 6: < 6.00
